- ASSAY_TARGET: COX-2 (Homo sapiens)
- Construct: purchased BioVision Incorporated K547-100 and K548-100
- Sequence (P35354 18-604): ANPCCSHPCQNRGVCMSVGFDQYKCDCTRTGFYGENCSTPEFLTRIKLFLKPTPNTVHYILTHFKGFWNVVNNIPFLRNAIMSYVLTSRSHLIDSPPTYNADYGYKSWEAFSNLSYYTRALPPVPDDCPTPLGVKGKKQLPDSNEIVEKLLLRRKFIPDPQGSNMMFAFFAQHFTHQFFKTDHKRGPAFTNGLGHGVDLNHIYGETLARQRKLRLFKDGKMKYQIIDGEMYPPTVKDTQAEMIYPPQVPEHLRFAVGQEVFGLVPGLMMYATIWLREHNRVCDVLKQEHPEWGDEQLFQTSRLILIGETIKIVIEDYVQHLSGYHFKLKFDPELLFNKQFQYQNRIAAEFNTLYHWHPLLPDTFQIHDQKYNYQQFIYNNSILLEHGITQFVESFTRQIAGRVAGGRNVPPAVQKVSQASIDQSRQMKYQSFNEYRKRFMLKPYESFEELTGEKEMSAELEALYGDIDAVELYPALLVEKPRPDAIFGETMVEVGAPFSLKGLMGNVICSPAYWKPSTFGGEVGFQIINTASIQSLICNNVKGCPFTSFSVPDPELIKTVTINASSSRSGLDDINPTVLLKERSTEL
- PROTOCOL_TEXT: COX-2 inhibitor screening assay (fluorometric kit)
- Format: biochemical
- CONDITIONS_USED: read-out: IC50, μM ± SD COX-2
This section presents molecules with their documented IC50 values.
RESULT_TYPE: IC50 (µM)

>>> df
                                   molecule  measured_value
0  Cc1ccc(-n2cc(COC(=O)C(C)c3ccc(CC(C)C)cc3)nn2)cc1 (stereo not drawn) [Compound 5d]            4.47
1  COc1ccccc1-n1cc(COC(=O)C(C)c2ccc(CC(C)C)cc2)nn1 (stereo not drawn) [Compound 5e]              14
2  C#CCOC(=O)C(C)c1ccc(CC(C)C)cc1 (stereo not drawn) [Compound 3]             8.6

---

- Tested on: hot plate latency
- PROTOCOL_TEXT: hot plate assay (central analgesic)
- Type: in vivo, mice
- CONDITIONS_USED: at 120 min compared to indomethacin
Sorting guide: entries reporting Potency beneath 50 go in the Met pile, the rest go in the Not met pile.

>>> df
                                   compound  group_label
0  COc1ccc2c(c1)c(CC(=O)O)c(C)n2C(=O)c1ccc(Cl)cc1 [Indo, Indomethacin, reference compound]      Not met
1  Cc1ccc(-n2cc(COC(=O)C(C)c3ccc(CC(C)C)cc3)nn2)cc1 (centres unmarked)          Met
2  COc1ccc(-n2cc(COC(=O)C(C)c3ccc(CC(C)C)cc3)nn2)cc1 (centres unmarked)          Met
3  COc1ccc2c(c1)c(CC(=O)OCc1cn(-c3ccc(C)cc3)nn1)c(C)n2C(=O)c1ccc(Cl)cc1      Not met
4  C#CCOC(=O)C(C)c1ccc(CC(C)C)cc1 (centres unmarked)          Met
5  COc1ccc2c(c1)c(CC(=O)OCc1cn(-c3ccc(Cl)cc3)nn1)c(C)n2C(=O)c1ccc(Cl)cc1          Met
6  COc1ccc2c(c1)c(CC(=O)OCc1cn(-c3ccc([N+](=O)[O-])cc3)nn1)c(C)n2C(=O)c1ccc(Cl)cc1          Met
7  COc1ccc2c(c1)c(CC(=O)OCc1cn(-c3ccc(F)cc3)nn1)c(C)n2C(=O)c1ccc(Cl)cc1      Not met

Values were extracted from paper PMC9965125.
